Tested on: SK-OV-3 ovarian
Experiment: NCI-60 one-dose screen, 48 h (100 = growth as untreated, 0 = no growth, -100 = all killed)
Settings: 10 µM
About 83,000 compounds went through this panel and 20% of them were active in at least one assay; those are over-represented in the sample as a whole.
MEASURED_ATTRIBUTE: growth (%)
Number only, in %; omit the unit.

INSERT INTO results (sample_smiles, recorded_result) VALUES
  ('Cc1cc(C)c(NC(=O)c2sc3nc4c(cc3c2N)C(=O)CCC4)c(C)c1', 10.4),
  ('Cc1cccc2c(NCCN(C)C)c3cccc(C(=O)NCCN(C)C)c3nc12', 19.7),
  ('COc1ccc(-c2csc(NC(=O)CSc3nc(C)c(-c4ccccc4)n3Nc3ccccc3)n2)cc1', 88.3),
  ('Fc1ccc(-c2nnc(-c3c(-c4ccc(F)cc4)nc4ccccn34)o2)cc1', 85.3);

Record for `CCN(CC)CCSCCCNc1c2ccc(Cl)cc2nc2ccc(OC)cc12` under target or system SK-OV-3 ovarian: growth reported as -1.76

These data points were gathered from PubChem BioAssay (NCI).
